For each entry below, report its growth value.
# Test system: SK-MEL-2 melanoma
# experimental_protocol: NCI-60 one-dose screen, 48 h (100 = growth as untreated, 0 = no growth, -100 = all killed)
# measurement_context: 10 µM unless noted
This is part of a sample that, as a whole, favours compounds with a hit. Of some 83,000 tested, about 20% had one in any assay.
Write it as a number; the unit % goes unstated.

Ask: // query growth value for entry `N=C1CC(=O)NN1C(=O)CSc1nc2sc3c(c2c(=O)n1-c1ccc(Cl)cc1)CCCC3`
Reply: 128

Ask: What growth value was documented for this molecule, `CS(=O)(=O)c1ccc(-n2cc(/C=C/C(=O)c3ccc(NC(=O)CO[N+](=O)[O-])cc3)c(-c3ccc(Cl)cc3)n2)cc1` ?
Reply: 94.9

Ask: # query: growth of entry `CSc1ccc2c(c1)N(C(=O)/C(C#N)=C/c1c[nH]c3ccccc13)c1ccccc1S2`
Reply: 35.6

Ask: What value of growth has been reported for the following molecule? `N#Cc1nc(-c2ccccc2)oc1S(=O)(=O)N1CCN(CCc2ccccn2)CC1`
Reply: 108

====

# System: HCC-2998 colon
# experimental_protocol: NCI-60 one-dose screen, 48 h
# measurement_context: 10 µM unless noted
This is part of a sample that, as a whole, favours compounds with a hit. Of some 83,000 tested, about 20% had one in any assay. Activity calls are given as the source filed them. Rule for the calls: active = growth percent below 10; inactive = the rest.
// allowed return values: TRUE for active, FALSE for inactive

Ask: Please state the recorded outcome for this compound: `Nc1c(C(=O)c2ccc(Br)cc2)oc2nc(-c3cnccn3)cc(-c3cccs3)c12`
Reply: FALSE

Ask: // outcome(item) with item = `Cc1cc2nc3c4cc(Cl)ccc4n(CC(=S)NCCN(C)C)c3nc2cc1C`
Reply: TRUE

Ask: Which outcome was entered for the compound `COc1ccc(/C=C2\SC(=Nc3cc(C)[nH]n3)NC2=O)cc1` in this test?
Reply: FALSE

Ask: Fill in: this test's call for `COc1ccc(-n2c(SCC(=O)Nc3ccc(-c4nc5ccccc5[nH]4)cc3)nc3ccccc3c2=O)cc1` is ___
Reply: FALSE

Ask: What did this assay record as the result for `COc1ccc2[nH]cc(-c3cc(N)n4nc(-c5c[nH]c6ccc(OC)cc56)cc4n3)c2c1` ?
Reply: TRUE

Ask: Hi, sorry to bother you, what did the test record for `N#Cc1nc(-c2ccccc2)oc1S(=O)(=O)N1CCN(CCc2ccccn2)CC1` ?
Reply: FALSE

Ask: For `CN1CCN(Cc2ccc(NC(=O)c3cncc(C#Cc4cnc5[nH]ncc5c4)c3)cc2C(F)(F)F)CC1` , what call appears in the results of this test?
Reply: FALSE

Ask: Call for entry `CNC(=O)c1cc(-c2ccc(NC(=O)Nc3ccc(N4CCOCC4)c(C(F)(F)F)c3)cc2)nc2cccnc12` :
Reply: FALSE

Ask: Short answer needed: outcome of this test for `O=C(CCN1C(=O)/C(=C/c2ccccc2F)SC1=S)N1CCOCC1` ?
Reply: FALSE

Ask: Could you please tell me the result logged for CCCCN1C(=O)/C(=c2\sc3n(c2=O)C2C(NN=3)N(CC)C(=O)N2CC)c2cc(Cl)ccc21 (centres undefined) in this assay?
Reply: FALSE

Ask: Please indicate how the test categorized `C/C(=C(/c1ccc(Cl)cc1)c1ccc(OCCN)cc1)c1ccc(C)cc1` .
Reply: FALSE

Ask: Identify the outcome logged in this assay for the compound shown: `C=CCn1c(SCC(=O)c2ccc(Br)cc2)nnc1-c1c[nH]c2ccccc12`
Reply: FALSE

Ask: Any idea what this test logged for `C=CCn1c(SCC(=O)c2ccccc2)nnc1-c1c[nH]c2ccccc12` ?
Reply: FALSE

Ask: Please state the recorded outcome for this compound: `Clc1ccc2oc3c(OCCCn4ccnc4)c4ccccc4nc3c2c1`
Reply: FALSE

Ask: Call for entry `O=C1Nc2cc(Cl)ccc2/C1=C\c1ccc(OCc2ccc(Br)cc2F)cc1` :
Reply: FALSE

Ask: For `N[C@@H](Cc1cn(-c2ccnc3ccccc23)nn1)C(=O)O` , which call appears in the assay record?
Reply: FALSE

Ask: Which outcome was assigned to `COc1cc(/C=C/C(=O)c2ccc(F)cc2)ccc1Oc1nc(NCCO)nc(N2CCOCC2)n1` in this test?
Reply: FALSE

Ask: Recorded test call requested for `C[C@@H]1CN(c2ccc3ncc(C#Cc4cncc(C(=O)Nc5ccc(CN6CCN(C)CC6)c(C(F)(F)F)c5)c4)n3n2)C[C@H](C)O1`
Reply: TRUE

Ask: Which outcome was assigned to `O=C(CSc1nnc(-c2ccc3nc(-c4ccc(Cl)cc4)[nH]c3c2)o1)Nc1ccc(C(=O)/C=C/c2ccc(Cl)cc2)cc1` in this test?
Reply: FALSE
